Kindly state DR/DR AA for each of the entries shown.
experiment: Probe fluorescence ratio response to arachidonic acid relative to ADIFAB2; type: binding; settings: arachidonic acid; response relative to ADIFAB2

Prompt line: Consider the molecule 21I, 72A (protein, listed as Rattus norvegicus, PEPTIDE (1)...(131) wild-type rat intestinal fatty acid binding protein) AFDGTWKVDRNENYEKFMEKIGINVVKRKLGAHDNLKLTITQEGNKFTVKESSNFRNIDVVFELGVDFAYSAADGTELTGTWTMEGNKLVGKFKRVDNGKELIAVREISGNELIQTYTYEGVEAKRIFKKE . State its measured DR/DR AA.
Response line: 0.531

Prompt line: Consider the molecule 119Q, 72A (protein, listed as Rattus norvegicus, PEPTIDE (1)...(131) wild-type rat intestinal fatty acid binding protein) AFDGTWKVDRNENYEKFMEKMGINVVKRKLGAHDNLKLTITQEGNKFTVKESSNFRNIDVVFELGVDFAYSAADGTELTGTWTMEGNKLVGKFKRVDNGKELIAVREISGNELIQTYTQEGVEAKRIFKKE . State its measured DR/DR AA.
Response line: 0.60

Prompt line: Consider the molecule 34A, 72A (protein, listed as Rattus norvegicus, PEPTIDE (1)...(131) wild-type rat intestinal fatty acid binding protein) AFDGTWKVDRNENYEKFMEKMGINVVKRKLGAHANLKLTITQEGNKFTVKESSNFRNIDVVFELGVDFAYSAADGTELTGTWTMEGNKLVGKFKRVDNGKELIAVREISGNELIQTYTYEGVEAKRIFKKE . State its measured DR/DR AA.
Response line: 0.58

Prompt line: Consider the molecule 115F1, 72A (protein, listed as Rattus norvegicus, PEPTIDE (1)...(131) wild-type rat intestinal fatty acid binding protein) AFDGTWKVDRNENYEKFMEKMGINVVKRKLGAHDNLKLTITQEGNKFTVKESSNFRNIDVVFELGVDFAYSAADGTELTGTWTMEGNKLVGKFKRVDNGKELIAVREISGNELIFTYTYEGVEAKRIFKKE . State its measured DR/DR AA.
Response line: 1.36

Prompt line: Consider the molecule 73L, 72A (protein, listed as Rattus norvegicus, PEPTIDE (1)...(131) wild-type rat intestinal fatty acid binding protein) AFDGTWKVDRNENYEKFMEKMGINVVKRKLGAHDNLKLTITQEGNKFTVKESSNFRNIDVVFELGVDFAYSALDGTELTGTWTMEGNKLVGKFKRVDNGKELIAVREISGNELIQTYTYEGVEAKRIFKKE . State its measured DR/DR AA.
Response line: 0.733

Prompt line: Consider the molecule 104I1, 72A (protein, listed as Rattus norvegicus, PEPTIDE (1)...(131) wild-type rat intestinal fatty acid binding protein) AFDGTWKVDRNENYEKFMEKMGINVVKRKLGAHDNLKLTITQEGNKFTVKESSNFRNIDVVFELGVDFAYSAADGTELTGTWTMEGNKLVGKFKRVDNGKELIIVREISGNELIQTYTYEGVEAKRIFKKE . State its measured DR/DR AA.
Response line: 0.28
